Data provenance is patent US20240076272A1.

test system: eIF2α phosphorylation (ATF-4 5′UTR luciferase reporter); assay: surrogate eIF2α phosphorylation dual-luciferase reporter (DLR) assay; format: cell-based; conditions: 1.25 μM; F/R luciferase ratio normalized to DMSO wells (F/R=1); read-out: Fold stimulation of ATF-4 Surrogate eIF2α @ 1.25 μM
Quick reference: fold induction at 1.25 µM of the listed items.

[
  {
    "structure-smiles": "N#Cc1cc(F)cc(NC(=O)N[C@H]2CC[C@H](Oc3ccc(C(F)(F)F)cc3)CC2)c1",
    "fold induction at 1.25 µM": 4.6
  },
  {
    "structure-smiles": "N#Cc1cc(NC(=O)N[C@H]2C[C@@H](Oc3ccc(C(F)(F)F)cc3)C2)cc(C(F)(F)F)c1",
    "fold induction at 1.25 µM": 4.3
  },
  {
    "structure-smiles": "O=C(Nc1ccc(F)c(F)c1)N[C@H]1CC[C@H](Oc2ccc(C(F)(F)F)cc2)CC1",
    "fold induction at 1.25 µM": 2.9
  },
  {
    "structure-smiles": "N#Cc1cc(F)cc(NC(=O)N[C@H]2CC[C@H](Oc3ccc(C(F)(F)F)cc3)C2)c1",
    "fold induction at 1.25 µM": 2.4
  }
]
